# Test system: 317291-083-R-J1-PDC complex spheroids, viability
# protocolNotes: Anticancer human tumor 317291-083-R-J1-PDC patient-derived soft tissue sarcoma cell line growth inhibition [GQUAD]
# conditionSet: second compound 3.16 µM; first compound 0.1 µM; active compounds read low
# note: exactly 20% is not below, so it is false (0); use true (1) for viability, T/C strictly under it

# compound, testedTarget, class
rows = [
    ("C#Cc1c(F)ccc2cc(O)cc(-c3ncc4c(N5CC6CCC(C5)N6)nc(OCC56CCCN5CC(F)C6)nc4c3F)c12 (configuration not stated) + Cc1[nH]c2ccc(F)cc2c1-c1nc2c3cccnc3c3ncccc3c2[nH]1", "317291-083-R-J1-PDC complex spheroids, viability", "false (0)"),
    ("CC1COCCN1c1cc(-c2ccnn2C)c2ccnc(-c3ccn[nH]3)c2n1 (configuration not stated) + CN(C)c1ccc(Nc2c3ccc(NC(=O)CCN4CCCC4)cc3nc3cc(NC(=O)CCN4CCCC4)ccc23)cc1", "317291-083-R-J1-PDC complex spheroids, viability", "true (1)"),
    ("COc1ccc([C@@H](O)c2cc(-c3ncnc4cc(N5CCOCC5)ccc34)c(F)cc2Cl)nn1 + Cc1[nH]c2ccc(F)cc2c1-c1nc2c3cccnc3c3ncccc3c2[nH]1", "317291-083-R-J1-PDC complex spheroids, viability", "false (0)"),
    ("CC1COCCN1c1cc(C2(S(C)(=N)=O)CC2)nc(-c2ccnc3[nH]ccc23)n1 (configuration not stated) + Cc1[nH]c2ccc(F)cc2c1-c1nc2c3cccnc3c3ncccc3c2[nH]1", "317291-083-R-J1-PDC complex spheroids, viability", "false (0)"),
    ("O=C(c1cc(Cc2n[nH]c(=O)c3ccccc23)ccc1F)N1CCN(C(=O)C2CC2)CC1 + Cc1cnc(CNC(=O)c2c(=O)c3ccc(N4CCCN(C)CC4)nc3n3c2sc2ccccc23)cn1", "317291-083-R-J1-PDC complex spheroids, viability", "true (1)"),
    ("CC1COCCN1c1cc(C2(S(C)(=N)=O)CC2)nc(-c2ccnc3[nH]ccc23)n1 (configuration not stated) + CN(C)c1ccc(Nc2c3ccc(NC(=O)CCN4CCCC4)cc3nc3cc(NC(=O)CCN4CCCC4)ccc23)cc1", "317291-083-R-J1-PDC complex spheroids, viability", "false (0)"),
    ("C=CCn1c(=O)c2cnc(Nc3ccc(N4CCN(C)CC4)cc3)nc2n1-c1cccc(C(C)(C)O)n1 + Cc1cnc(CNC(=O)c2c(=O)c3ccc(N4CCCN(C)CC4)nc3n3c2sc2ccccc23)cn1", "317291-083-R-J1-PDC complex spheroids, viability", "true (1)"),
]

====

# System: 317291-083-R-J1-PDC complex spheroids, viability
# protocolNotes: Anticancer human tumor 317291-083-R-J1-PDC cell line growth inhibition [GQUAD]; active = viability on the fitted dose curve at most 10% of control; inactive = the rest;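 also: spheroids exposed to compounds for one week before readout; percent viability relative to DMSO vehicle wells taken as 100%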
# conditionSet: second compound 10 µM; first compound 1 µM
Outcome codes: active, inactive

# compound, class
measured = [
    ("CCCS(=O)(=O)Nc1ccc(F)c(C(=O)c2c[nH]c3ncc(-c4ccc(Cl)cc4)cc23)c1F + Cc1[nH]c2ccc(F)cc2c1-c1nc2c3cccnc3c3ncccc3c2[nH]1", "inactive"),
    ("CC1COCCN1c1cc(C2(S(C)(=N)=O)CC2)nc(-c2ccnc3[nH]ccc23)n1 (stereo not drawn) + Cc1cnc(CNC(=O)c2c(=O)c3ccc(N4CCCN(C)CC4)nc3n3c2sc2ccccc23)cn1", "inactive"),
    ("CC(=O)O[C@H]1C(=O)[C@@]2(C)[C@H]([C@H](OC(=O)c3ccccc3)[C@]3(O)C[C@H](OC(=O)[C@H](O)[C@@H](NC(=O)c4ccccc4)c4ccccc4)C(C)=C1C3(C)C)[C@]1(OC(C)=O)CO[C@@H]1C[C@@H]2O + Cc1[nH]c2ccc(F)cc2c1-c1nc2c3cccnc3c3ncccc3c2[nH]1", "inactive"),
    ("CC(C)n1c(=O)n(C)c2cnc3cc(F)c(-c4ccc(OCCCN5CCCCC5)nc4)cc3c21 + CN(C)c1ccc(Nc2c3ccc(NC(=O)CCN4CCCC4)cc3nc3cc(NC(=O)CCN4CCCC4)ccc23)cc1", "active"),
    ("C=CC(=O)N1CCN(c2nc(=O)n(-c3c(C)ccnc3C(C)C)c3nc(-c4c(O)cccc4F)c(F)cc23)C(C)C1 (stereo not drawn) + Cc1[nH]c2ccc(F)cc2c1-c1nc2c3cccnc3c3ncccc3c2[nH]1", "inactive"),
    ("COc1cccc2c1C(=O)c1c(O)c3c(c(O)c1C2=O)CC(O)(C(=O)CO)CC3OC1CC(N)C(O)C(C)O1 (stereo not drawn) + Cc1cnc(CNC(=O)c2c(=O)c3ccc(N4CCCN(C)CC4)nc3n3c2sc2ccccc23)cn1", "inactive"),
    ("CC1COCCN1c1cc(C2(O)CC3CCC(C2)O3)c2cnn(-c3ccn[nH]3)c2n1 (stereo not drawn) + Cc1cnc(CNC(=O)c2c(=O)c3ccc(N4CCCN(C)CC4)nc3n3c2sc2ccccc23)cn1", "inactive"),
    ("CC1COCCN1c1cc(C2(O)CC3CCC(C2)O3)c2cnn(-c3ccn[nH]3)c2n1 (stereo not drawn) + Cc1[nH]c2ccc(F)cc2c1-c1nc2c3cccnc3c3ncccc3c2[nH]1", "active"),
]
